Origin of measurements: patent US20260070924A1

tested on: MV-4-11 cells; experiment: MV-4-11 cell proliferation assay (CellTiter-Glo 2.0); assay type: cell-based; conditions: Homo sapiens, MV4-11; MV-4-11, 384-well, 11-dose dilution series; read-out: IC50, inhibition of MV-4-11 cell proliferation
The following compounds are listed with their measured pIC50 values.
Formally, pIC50 is defined as -log10 of the concentration c, with c in mol/L.

MV-4-11 cells data for CCc1noc2c1/C=C/c1n[nH]c3ccc(cc13)-c1cnn(C)c1OCCN(C)C2=O [Ex. 25] ; its pIC50: 9.28

Query CN1CCOc2c(cnn2C)-c2ccc3[nH]nc(c3c2)/C=C/c2cn(C)nc2C1=O [compound 4] on MV-4-11 cells; pIC50 returned: 7.67

Entry CCc1nn(C)c2c1/C=C/c1n[nH]c3ccc(cc13)-c1cnn(C)c1O[C@@H](C)CN(C)C2=O [Ex. 23] , MV-4-11 cells data, pIC50 value: 8.39

###

tested on: KCL22R; experiment: Cell proliferation panel (CellTiter-Glo 2.0, 5 days); format: cell-based; details: Chronic Myelogenous Leukemia
recordedMetric: pIC50
The quantity pIC50 is defined as the negative base-10 logarithm of the molar concentration.

The reported pIC50 value, KCL22R, for CCc1nn(C)c2c1/C=C/c1n[nH]c3ccc(cc13)-c1cnn(C)c1OCCN(C)C2=O [Ex. 6] reads 7.19

###

Parameter pIC50, tested on CLK1 (Homo sapiens (Human)), listed per item.
Sequence (P49759 whole entry): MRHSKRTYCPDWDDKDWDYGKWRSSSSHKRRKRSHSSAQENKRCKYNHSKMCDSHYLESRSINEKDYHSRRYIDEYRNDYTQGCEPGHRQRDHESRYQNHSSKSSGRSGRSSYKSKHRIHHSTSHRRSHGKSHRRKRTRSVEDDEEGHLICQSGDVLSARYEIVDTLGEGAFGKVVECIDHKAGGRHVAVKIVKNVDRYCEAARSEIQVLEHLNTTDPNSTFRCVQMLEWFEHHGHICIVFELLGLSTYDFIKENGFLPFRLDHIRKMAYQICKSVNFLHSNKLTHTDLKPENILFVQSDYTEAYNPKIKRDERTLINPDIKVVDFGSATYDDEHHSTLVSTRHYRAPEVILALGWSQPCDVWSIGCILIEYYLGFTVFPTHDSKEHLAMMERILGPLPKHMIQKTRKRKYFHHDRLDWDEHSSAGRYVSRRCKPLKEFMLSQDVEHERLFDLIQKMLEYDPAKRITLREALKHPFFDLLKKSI
pIC50 field: float, defined as -log10 of concentration (mol/L).

[
  {
    "molecule": "CCOc1nn(CCO)c2c1/C=C/c1n[nH]c3ccc(cc13)-c1cnn(C)c1OCCN(C)C2=O [Ex. 27]",
    "pIC50": 8.81
  },
  {
    "molecule": "CCc1nn(C)c2c1/C=C/c1n[nH]c3ccc(cc13)-c1cnn(C)c1OCCN(C)C2=O [Ex. 6]",
    "pIC50": 9.87
  },
  {
    "molecule": "CCOc1nn(C)c2c1/C=C/c1n[nH]c3ccc(cc13)-c1cnn(C)c1OCCN(C)C2=O [Ex. 22]",
    "pIC50": 9.45
  },
  {
    "molecule": "CN1CCOc2c(cnn2C)-c2ccc3[nH]nc(c3c2)/C=C/c2c(C#N)nn(C)c2C1=O [Ex. 24]",
    "pIC50": 9.38
  }
]

// switching to the query molecule
Record Cc1nn(CCO)c2c1/C=C/c1n[nH]c3ccc(cc13)-c1cnn(C)c1OCCN(C)C2=O [Ex. 16] has CLK1 (Homo sapiens (Human)) pIC50 equal to 9.52

###

molecular target: CLK3 (Homo sapiens (Human), UniProt P49761)
Sequence (P49761 whole entry): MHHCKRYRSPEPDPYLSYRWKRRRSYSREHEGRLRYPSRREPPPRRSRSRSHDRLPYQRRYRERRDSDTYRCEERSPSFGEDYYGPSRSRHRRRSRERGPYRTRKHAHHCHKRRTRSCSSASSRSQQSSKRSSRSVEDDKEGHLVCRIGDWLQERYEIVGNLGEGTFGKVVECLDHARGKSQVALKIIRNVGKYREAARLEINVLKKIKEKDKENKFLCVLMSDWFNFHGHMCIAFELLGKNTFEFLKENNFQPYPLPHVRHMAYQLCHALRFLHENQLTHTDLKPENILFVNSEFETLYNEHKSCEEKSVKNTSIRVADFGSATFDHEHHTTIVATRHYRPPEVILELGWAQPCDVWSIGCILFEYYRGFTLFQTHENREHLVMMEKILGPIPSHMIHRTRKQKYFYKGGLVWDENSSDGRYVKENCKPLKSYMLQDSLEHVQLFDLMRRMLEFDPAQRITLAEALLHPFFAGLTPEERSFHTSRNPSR
recordedMetric: IC50 (nM)
Return type: number; implicit unit nM.

Worked set:
[
  {
    "chemicalString": "CCc1nn(C)c2c1/C=C/c1n[nH]c3ccc(cc13)-c1cnn(C)c1O[C@@H](C)CN(C)C2=O",
    "unitString": "nM",
    "resultNumber": 5.53
  },
  {
    "chemicalString": "CN1CCOc2c(cnn2C)-c2ccc3[nH]nc(c3c2)/C=C/c2c(C#N)nn(C)c2C1=O",
    "unitString": "nM",
    "resultNumber": 92.9
  },
  {
    "chemicalString": "Cc1nn(C)c2c1/C=C/c1n[nH]c3ccc(cc13)-c1cnn(C)c1CN(C)CCN(C)C2=O",
    "unitString": "nM",
    "resultNumber": 2.77
  }
]

Would you kindly look at the next entry?
For this compound ( "Cc1nn(CCO)c2c1/C=C/c1n[nH]c3ccc(cc13)-c1cnn(C)c1OCCN(C)C2=O" ), measured IC50 is 10.4

###

PIM3 (Homo sapiens (Human)) pIC50 data
In plain terms, pIC50 is the concentration in mol/L turned into minus its base-10 logarithm.

[
  {
    "chemicalString": "CCc1nn(C)c2c1/C=C/c1n[nH]c3ccc(cc13)-c1cnn(C)c1OCCN(C)C2=O",
    "systemTested": "PIM3 (Homo sapiens (Human))",
    "pIC50": 9.94
  }
]

The record that follows has no pIC50 shown yet.
Form: compound = "Cc1nn(C)c2c1/C=C/c1n[nH]c3ccc(cc13)-c1cnn(C)c1OCCN(C)C2=O" ; pIC50 = 10.14

###

biological target: FLT3 (Homo sapiens (Human), UniProt P36888); assay: KINOMEscan binding assay (Eurofins DiscoveRx)
recordedMetric: Kd (nM)
Report the value in nM with no unit label.

// Kd value for "CCc1nn(C)c2c1/C=C/c1n[nH]c3ccc(cc13)-c1cnn(C)c1OCCN(C)C2=O" : 0.18

###

Tested on: COR-L23
Assay: Cell proliferation panel (CellTiter-Glo 2.0, 5 days)
Type: cell-based
Conditions: Large cell lung carcinoma
Procedure: Cell proliferation assay was carried out in a panel of 108 cell lines. 1000 (attached cells) or 3000 (suspension cells) cells/100 μl per well were seeded in 96 well black plate with a clear bottom (Corning #3904). […] Cell proliferation was measured using CellTiter-Glo 2.0 luciferase-based ATP detection assay (Promega, Madison, WI) at 50 μl per well following the manufacturer's protocol. Plates were then read on a TECAN Sparks multimode microplate reader. […]
recordedMetric: pIC50
Conceptually, pIC50 converts a concentration in mol/L into minus its log10.

Entry "CCc1nn(C)c2c1/C=C/c1n[nH]c3ccc(cc13)-c1cnn(C)c1OCCN(C)C2=O" , tested on COR-L23, has a reported pIC50 of 7.01

###

test system: UCSD-AML1; test: Cell proliferation panel (CellTiter-Glo 2.0, 5 days); assay type: cell-based; settings: Acute myeloid leukemia
recordedMetric: IC50 (nM)
Output spec: scalar in nM, unitless text.

# compound "CCc1nn(C)c2c1/C=C/c1n[nH]c3ccc(cc13)-c1cnn(C)c1OCCN(C)C2=O" ; its IC50 = 15.5

###

IC50 tested on CLK4 (Homo sapiens (Human)): recorded values
Sequence (Q9HAZ1 whole entry): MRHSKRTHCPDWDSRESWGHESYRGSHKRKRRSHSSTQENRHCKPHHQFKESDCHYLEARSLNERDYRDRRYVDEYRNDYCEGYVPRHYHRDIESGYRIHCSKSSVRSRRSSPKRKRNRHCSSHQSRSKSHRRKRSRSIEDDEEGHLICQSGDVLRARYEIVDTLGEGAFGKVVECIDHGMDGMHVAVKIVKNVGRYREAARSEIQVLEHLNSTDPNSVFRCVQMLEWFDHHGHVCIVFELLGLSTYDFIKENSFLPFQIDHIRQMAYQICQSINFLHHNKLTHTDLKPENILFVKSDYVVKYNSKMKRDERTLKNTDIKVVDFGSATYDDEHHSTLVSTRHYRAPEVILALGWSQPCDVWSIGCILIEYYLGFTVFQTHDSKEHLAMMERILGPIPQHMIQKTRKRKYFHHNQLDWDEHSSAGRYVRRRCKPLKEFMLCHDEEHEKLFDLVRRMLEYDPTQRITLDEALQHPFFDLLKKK
Field format: number, assumed nM, no unit text.

Look over these answered cases.
[
  {
    "chemicalString": "Cc1nn(C)c2c1/C=C/c1n[nH]c3ccc(cc13)-c1cnn(C)c1CN(C)CCN(C)C2=O",
    "resultNumber": 0.53
  },
  {
    "chemicalString": "CCc1nn(C)c2c1/C=C/c1n[nH]c3ccc(cc13)-c1cnn(C)c1O[C@@H](C)CN(C)C2=O",
    "resultNumber": 1.39
  }
]

Pending molecule:
Value (IC50, CLK4 (Homo sapiens (Human))) for record "CCOc1nn(CCO)c2c1/C=C/c1n[nH]c3ccc(cc13)-c1cnn(C)c1OCCN(C)C2=O" = 3.03

###

test system: PANC1; experiment: Cell proliferation panel (CellTiter-Glo 2.0, 5 days); assay type: cell-based; conditions: Pancreatic ductal epithelioid carcinoma
recordedMetric: pIC50
A value of pIC50 is the negative decimal logarithm of a concentration given in moles per litre.

Form field pIC50, entry "CCc1nn(C)c2c1/C=C/c1n[nH]c3ccc(cc13)-c1cnn(C)c1OCCN(C)C2=O" : 6.67

###

biological target: FLT3 (ITD, D835V); assay: KINOMEscan binding assay (Eurofins DiscoveRx)
recordedMetric: Kd (nM)
Express it in nM; write the number only.

Record CCc1nn(C)c2c1/C=C/c1n[nH]c3ccc(cc13)-c1cnn(C)c1OCCN(C)C2=O [Ex. 6] , field Kd: 0.058

###

test system: LS513; assay: Cell proliferation panel (CellTiter-Glo 2.0, 5 days); type: cell-based; conditions: Colorectal carcinoma
recordedMetric: IC50 (nM)
Quick note: give the figure in nM, leave out the unit.

# CCc1nn(C)c2c1/C=C/c1n[nH]c3ccc(cc13)-c1cnn(C)c1OCCN(C)C2=O [Ex. 6] with LS513: IC50 is 30.1

###

tested on: CAPAN2; experiment: Cell proliferation panel (CellTiter-Glo 2.0, 5 days); type: cell-based; details: Pancreatic adenocarcinoma
recordedMetric: IC50 (nM)
Express it in nM; write the number only.

Per the reported CAPAN2 data, "CCc1nn(C)c2c1/C=C/c1n[nH]c3ccc(cc13)-c1cnn(C)c1OCCN(C)C2=O" has IC50 of 365

###

target: FLT3 (D835V) (Homo sapiens (Human), UniProt P36888, D835V); assay: KINOMEscan binding assay (Eurofins DiscoveRx)
recordedMetric: pKd
Reminder that pKd means the negative base-10 logarithm of the concentration expressed in mol/L.

// recorded pKd for "CCc1nn(C)c2c1/C=C/c1n[nH]c3ccc(cc13)-c1cnn(C)c1OCCN(C)C2=O" : 10.21

###

test system: BJ; assay: Cell proliferation panel (CellTiter-Glo 2.0, 5 days); assay type: cell-based; conditions: Skin fibroblast
recordedMetric: IC50 (nM)
Just the number in nM, nothing appended.

"CCc1nn(C)c2c1/C=C/c1n[nH]c3ccc(cc13)-c1cnn(C)c1OCCN(C)C2=O" has a reported IC50 of 516
